Molecular target: full-length beta-Catenin (Uniprot ID P35222) (Homo sapiens (Human)) (UniProt P35222)
Sequence (P35222 2-781 limits assumed): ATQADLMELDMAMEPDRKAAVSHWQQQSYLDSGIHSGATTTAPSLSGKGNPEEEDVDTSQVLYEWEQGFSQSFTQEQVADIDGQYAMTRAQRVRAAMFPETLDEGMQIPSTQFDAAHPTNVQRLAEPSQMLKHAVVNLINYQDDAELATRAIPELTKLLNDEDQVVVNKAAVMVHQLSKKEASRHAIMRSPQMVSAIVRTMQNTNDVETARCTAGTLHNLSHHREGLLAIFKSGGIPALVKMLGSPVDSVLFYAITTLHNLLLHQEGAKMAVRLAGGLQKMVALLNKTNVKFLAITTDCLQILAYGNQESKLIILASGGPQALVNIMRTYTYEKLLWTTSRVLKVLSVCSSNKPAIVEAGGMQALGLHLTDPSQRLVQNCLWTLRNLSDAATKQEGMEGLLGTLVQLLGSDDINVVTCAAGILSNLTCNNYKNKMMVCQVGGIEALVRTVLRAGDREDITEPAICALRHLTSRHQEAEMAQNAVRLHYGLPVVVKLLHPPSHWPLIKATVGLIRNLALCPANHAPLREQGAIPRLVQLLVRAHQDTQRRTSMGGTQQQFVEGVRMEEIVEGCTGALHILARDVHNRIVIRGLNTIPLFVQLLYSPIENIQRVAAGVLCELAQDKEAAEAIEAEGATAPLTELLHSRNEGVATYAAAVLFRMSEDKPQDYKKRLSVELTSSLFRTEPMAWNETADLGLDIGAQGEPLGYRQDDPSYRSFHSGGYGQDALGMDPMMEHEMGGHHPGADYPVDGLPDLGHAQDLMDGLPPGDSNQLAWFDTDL
Assay: cell-based or functional assay
Starred links: 1 amine or outer side, 2 acyl side, 3 side chain; linkers in the order of their positions; H or OH if unused. Positions of bridges follow the written chain, without caps; N, C: chain ends. Non-standard residues stand in square brackets, D forms with d. Primed or numbered codes have the meaning given here. PyrS2″ = (S)-3-amino-1-((pent-4-en-1-yloxy)carbonyl)pyrrolidine-3-carboxylic acid (stapling residue), C=CCCCOC(=O)N1CC[C@@](N[*:1])(C(=O)[*:2])C1; B5(5) = 2,2-bis(4-pentenyl)glycine, 2-amino-2-(pent-4-en-1-yl)hept-6-enoic acid (stitching residue), C=CCCCC(CCCC=C)(N[*:1])C(=O)[*:2]; Phe(3-COOH) = N[C@@H](Cc1cccc(C(=O)O)c1)C(=O)O; Phe(2-CF3) = N[C@@H](Cc1ccccc1C(F)(F)F)C(=O)O; Bta = N[C@@H](Cc1csc2ccccc12)C(=O)O; αAllylPro = C=CC[C@@]1(C(=O)O)CCCN1; tBuAla = CC(C)(C)C[C@H](N)C(=O)O
MEASUREMENT_KIND: DLD1 4% Abs IC50
Quick note: unit goes after the number.

Give me measured DLD1 4% Abs IC50, please, for this binder: Ac-[αAllylPro]D[tBuAla][B5(5)]D[Phe(3-COOH)]AAFL[PyrS2″][Phe(2-CF3)][Bta]QLT-NH2 (staple 1-4, 4-11) [I-2383]
800 nM

src = patent US20240116985A1
